# TEST SYSTEM: Ecdysone receptor (Bombyx mori, UniProt P49881)
# Sequence (P49881 whole entry): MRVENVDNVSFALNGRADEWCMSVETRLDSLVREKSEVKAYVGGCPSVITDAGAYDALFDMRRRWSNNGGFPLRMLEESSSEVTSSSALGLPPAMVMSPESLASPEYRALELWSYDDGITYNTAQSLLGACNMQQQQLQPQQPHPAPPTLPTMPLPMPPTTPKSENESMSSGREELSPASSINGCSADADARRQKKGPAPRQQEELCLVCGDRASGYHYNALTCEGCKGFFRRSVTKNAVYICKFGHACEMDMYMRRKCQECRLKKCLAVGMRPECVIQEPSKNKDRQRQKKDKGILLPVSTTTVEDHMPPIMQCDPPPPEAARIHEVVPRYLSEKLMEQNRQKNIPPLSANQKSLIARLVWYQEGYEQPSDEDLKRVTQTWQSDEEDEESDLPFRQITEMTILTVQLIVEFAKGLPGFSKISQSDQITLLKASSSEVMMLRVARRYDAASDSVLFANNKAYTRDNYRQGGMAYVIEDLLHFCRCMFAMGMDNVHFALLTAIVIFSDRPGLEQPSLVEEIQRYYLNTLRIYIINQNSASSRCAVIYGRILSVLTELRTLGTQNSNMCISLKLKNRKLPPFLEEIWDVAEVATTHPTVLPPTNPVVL
# ASSAY: Agonist activity at ecdysone receptor in Bombyx mori Bm5 cells after 24 hr by luciferase reporter gene assay
# Type: cell-based
# CONDITION SET: read-out: pEC50 (converted)
# EC50 per record follows
Provide the reading as a plain figure in nM.

Cc1cc(C)cc(C(=O)C2(NC(=O)c3ccc4c(c3C)CCCO4)CCCCC2)c1
4.37
CCc1ccc(C(=O)NN(C(=O)c2cc(C)cc(C)c2)C(C)(C)C)cc1 [TEBUFENOZIDE]
1.12
Cc1ccccc1C(=O)N(NC(=O)c1cccc(F)c1)C(C)(C)C
324
Cc1cc(C)cc(C(=O)N(NC(=O)c2cccc(C)c2C)C(C)(C)C)c1
11
CC(C)(C)N(NC(=O)c1ccccc1)C(=O)c1ccccc1
437
CCCc1ccc(C(=O)NN(C(=O)c2ccccc2Cl)C(C)(C)C)cc1
30.9
CCc1ccc(C(=O)NC2(C(=O)c3cc(C)cc(C)c3)CCCCC2)cc1
77.6
CC(C)(C)N(NC(=O)c1cccc(Cl)c1)C(=O)c1ccccc1Cl
309

Return reported EC50; argument: COc1ccc(C(=O)NN(C(=O)c2cc(C)cc(C)c2Cl)C(C)(C)C)cc1
1230

For the compound Cc1cc(C)c(Cl)c(C(=O)N(NC(=O)c2ccccc2)C(C)(C)C)c1 , what EC50 is on record?
1170

For Cc1cc(C)c(Cl)c(C(=O)N(NC(=O)c2ccc3c(c2C)CCCO3)C(C)(C)C)c1 , what is its reported EC50?
33.1

Report EC50 for CCC(CC)(NC(=O)c1ccc2c(c1C)CCCO2)C(=O)c1cc(C)cc(C)c1 please.
191

Suppose we examine the compound Cc1cc(C)cc(C(=O)N(NC(=O)c2ccc3c(c2C)CCCO3)C(C)(C)C)c1 [CHROMAFENOZIDE] ; what EC50 value has been reported?
1

----------
# TEST SYSTEM: Ecdysone receptor (Bombyx mori)
# ASSAY: Agonist activity at ecdysone receptor in Bombyx mori Bm5 cells after 24 hr by luciferase reporter gene assay relative to tebufenozide
# Format: cell-based
Cut-off 90% on Efficacy, inclusive. At or above means class 1; below means class 0.

Please review the following examples before continuing.
COc1ccc(C(=O)NN(C(=O)c2cc(C)cc(C)c2Cl)C(C)(C)C)cc1
class 1
CC(C)(C)N(NC(=O)c1ccccc1)C(=O)c1ccccc1 [RH-5849]
class 0
COc1ccc(C(=O)NN(C(=O)c2ccccc2Cl)C(C)(C)C)cc1
class 1

Consider the additional compound presented here.
Quick check, Efficacy >= 90%? CCc1ccc(C(=O)NC(CC)(CC)C(=O)c2cc(C)cc(C)c2)cc1
class 1

----------
# TEST SYSTEM: Ecdysone receptor (Bombyx mori) (UniProt P49881)
# ASSAY: Agonist activity at ecdysone receptor in Bombyx mori Bm5 cells after 24 hr by luciferase reporter gene assay relative to tebufenozide
# Type: cell-based
Would you please tag the item y when its Efficacy is 80% or above, and n when it is below?

Solved entries (count: 3):
CC(C)(C)N(NC(=O)c1ccccc1F)C(=O)c1ccccc1Cl
y
CCCCc1ccc(C(=O)NN(C(=O)c2ccccc2OCC)C(C)(C)C)cc1
n
CCc1ccc(C(=O)NN(C(=O)c2cc(C)cc(C)c2Cl)C(C)(C)C)cc1
y

Query compound follows.
Please indicate if the recorded Efficacy for Cc1c(C(=O)NN(C(=O)c2ccccc2Cl)C(C)(C)C)ccc2c1CCCO2 meets or exceeds 80%.
y
